Test: MELAS cybrid and Rieske KO viability enhancers – cell-based, MELAS cybrids, Rieske KO mouse fibroblasts, CellTiter-Glo, primary screen (AID 1508586);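 also: test concentration not given here; z relative to plate mean and SD of compound and empty wells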
Settings: MELAS cybrid survival, low glucose, CellTiter-Glo 48 h; hits give high values
The source made the active and inactive calls.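 The calls were made as follows: active = mean z-score across replicates of 1.96 or higher in either the MELAS or the Rieske mutant cell line; inactive = the rest.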
Here, each record is paired with measured z-score data.

compound=Cn1cc(C=CC(=O)c2cccc(F)c2)cc1C=CC(=O)NO readout_value="-0.416 (inactive)"
compound="CC(C)(O)C1CC[C@@](C)([C@@H]2C(O)C[C@@]3(C)[C@@H]4CC(OC5OC(CO)C(O)C(O)C5O)[C@H]5C(C)(C)C(OC6OCC(O)C(O)C6O)CC[C@@]56C[C@]46CC[C@]23C)O1 (some centres undefined)" readout_value="-0.378 (inactive)"
compound="CC1CN(c2c(F)c(N)c3c(=O)c(C(=O)O)cn(C4CC4)c3c2F)CC(C)N1 (centres undefined)" readout_value="-0.385 (inactive)"
compound=CCn1ncc2[nH]c(-c3cnn(C)c3-c3ccccc3)nc21 readout_value="-0.346 (inactive)"
compound=O=C(Nc1ccccc1)N1CCN(c2nc(-c3ccccc3)ns2)CC1 readout_value="-0.215 (inactive)"
compound="CC(C)(C)OC(=O)NC1CCCCCC=CC2C[C@@]2(C(=O)NS(=O)(=O)C2CC2)NC(=O)C2CC(OC(=O)N3Cc4cccc(F)c4C3)CN2C1=O (some centres undefined)" readout_value="-0.451 (inactive)"
compound="CC[C@]1(O)C[C@@H]2CN(CCc3c([nH]c4ccccc34)[C@@](C(=O)OC)(c3cc4c(cc3OC)N(C=O)[C@@H]3[C@@]45CCN4CC=C[C@@](CC)(C(OC(C)=O)[C@]3(O)C(=O)OC)[C@H]45)C2)C1 (some centres undefined)" readout_value="0.317 (inactive)"
compound="Cc1cc(Cn2cnc3c2CC(C(=O)O)N(C(=O)C(c2ccccc2)c2ccccc2)C3)ccc1N(C)C (centres undefined)" readout_value="0.9 (inactive)"

Field z-score (entry CC(=O)O[C@@]1(C(C)=O)CC[C@H]2[C@@H]3CC(C)C4=CC(=O)CC[C@]4(C)[C@@H]3CC[C@@]21C (some centres undefined) ) reads -0.365 (inactive)

Form field z-score, entry CCc1cc2c(cc1CC)CC(NCC(O)c1ccc(O)c3[nH]c(=O)ccc13)C2 (centres undefined) : -0.199 (inactive)

What the record says about CS(=O)(=O)CCNCc1ccoc1-c1ccc2ncnc(Nc3ccc(OCc4ccccc4)cc3)c2c1 : z-score is 0.221 (inactive)

The recorded z-score for entry C[C@H](O)[C@H]1NC(=O)[C@@H]2C[C@H](NC(=O)Nc3cccc(F)c3)CN2C1=O equals 0.0941 (inactive)

Measured z-score of COC1O[C@H]2O[C@@]3(C)CC[C@H]4[C@@H](C)CC[C@@H]([C@H]1C)[C@@]24OO3 (some centres undefined) : -0.241 (inactive)

Recorded z-score (compound Nc1ccn(C2CCC(CO)O2)c(=O)n1 (centres undefined) ): -0.101 (inactive)

// sample Cc1nsc(NC(=O)N[C@@H]2CCCC[C@H]2c2ccccc2)n1 , its z-score was 0.535 (inactive)

z-score for CC(CS)C(=O)N1CCCC1C(=O)O (centres undefined) is -0.2 (inactive)

Reported z-score for O=C(O)c1cnn(-c2ccccc2)c1 was -0.738 (inactive)

Lab note: measured z-score of CNC(C)C(=O)NC(C(=O)N1CCCC1C(=O)Nc1snnc1-c1ccccc1)C1CCCCC1 (centres undefined) was -0.276 (inactive)

Just so you know, measured z-score for CCOC(=O)C(N)Cc1ccc(-c2cc(OC(c3ccc(Cl)cc3-n3ccc(C)n3)C(F)(F)F)nc(N)n2)cc1 (centres undefined) came out at 0.073 (inactive)

Notebook: c1ccn2cc(CCNc3ncnc4nc[nH]c34)nc2c1 , z-score read as -0.607 (inactive)

Recorded result, COc1ccccc1S(=O)(=O)Nc1ccc2c(c1)CN(C)C(=O)N2 , z-score: 0.202 (inactive)

For CN(C)C(=O)c1cc(-c2cnc(-c3ccccn3)nc2)nc2cc(F)ccc12 the compound record lists z-score as -0.444 (inactive)

Given item Cc1ccc(C(=O)N2CCC(Cc3ccccc3)CC2)cc1 , the value recorded as its z-score is -0.903 (inactive)
